biological target: human CB1 receptor (Homo sapiens, UniProt P21554); construct: expressed in transfected cells; host or cells: human embryonic kidney (HEK) cells, Semliki Forest Virus system, membrane preparations; experiment: CB1 receptor affinity ([3H]-CP-55,940 displacement, HEK cell membranes); assay type: binding; settings: displacement of radioligand [3H]-CP-55,940
Sequence (P21554 whole entry): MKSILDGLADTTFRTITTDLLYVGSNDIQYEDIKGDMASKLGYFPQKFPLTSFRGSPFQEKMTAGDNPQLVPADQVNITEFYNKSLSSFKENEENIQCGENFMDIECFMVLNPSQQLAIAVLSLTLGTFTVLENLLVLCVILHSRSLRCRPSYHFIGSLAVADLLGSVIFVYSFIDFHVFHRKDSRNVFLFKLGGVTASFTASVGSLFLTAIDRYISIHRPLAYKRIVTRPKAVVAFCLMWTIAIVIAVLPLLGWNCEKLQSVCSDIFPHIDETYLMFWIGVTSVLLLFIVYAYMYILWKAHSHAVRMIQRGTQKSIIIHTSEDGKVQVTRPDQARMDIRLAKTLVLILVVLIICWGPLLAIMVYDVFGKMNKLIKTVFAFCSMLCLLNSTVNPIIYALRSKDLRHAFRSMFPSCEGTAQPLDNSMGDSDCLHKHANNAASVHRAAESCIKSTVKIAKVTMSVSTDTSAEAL
Listed compounds paired with reported inhibition at 10 µM

compound: Cc1nc(C)c(C(=O)Nc2cnc(OCC(F)(F)F)c(-c3ccc(Cl)cc3)c2)o1 [Example 21]
inhibition at 10 µM: 29%

compound: O=C(Nc1cnc(OCC(F)(F)F)c(-c2ccc(Cl)cc2)c1)[C@H]1CCCO1 (racemic) [Example 70]
inhibition at 10 µM: 49%

compound: O=C(Nc1cnc(OCC2CC2)c(-c2ccc(Cl)cc2)c1)c1cccnc1 [Example 10]
inhibition at 10 µM: 36%

compound: O=C(Nc1cnc(OCC(F)(F)F)c(-c2ccc(Cl)cc2)c1)c1cncc(Br)c1 [Example 85]
inhibition at 10 µM: 38%

compound: O=C(Nc1cnc(OCC(F)(F)F)c(-c2ccc(Cl)cc2)c1)c1cnccn1 [Example 12]
inhibition at 10 µM: 22%

compound: CN1CCOc2cc(C(=O)Nc3cnc(OCC(F)(F)F)c(-c4ccc(Cl)c(F)c4)c3)cnc21 [Example 81]
inhibition at 10 µM: 21%

compound: COc1cncc(C(=O)Nc2cnc(OCC(F)(F)F)c(-c3ccc(Cl)cc3)c2)c1 [Example 77]
inhibition at 10 µM: 33%

compound: Cc1cc(-c2cc(NC(=O)c3cccnc3)cnc2OCC(F)(F)F)ccc1Cl [Example 39]
inhibition at 10 µM: 19%

compound: CCc1ccc(-c2cc(NC(=O)c3cncnc3)cnc2OCC(F)(F)F)cc1 [Example 56]
inhibition at 10 µM: 35%

compound: Cc1cc(-c2cc(NC(=O)c3c(F)ccnc3F)cnc2OCC(F)(F)F)ccc1Cl [Example 59]
inhibition at 10 µM: 22%

compound: COC(C)C(=O)Nc1cnc(OCC(F)(F)F)c(-c2ccc(Cl)cc2)c1 (stereo not drawn) [Example 86]
inhibition at 10 µM: 48%

compound: O=C(Nc1cnc(OCC(F)(F)F)c(-c2ccc(F)cc2)c1)c1cccnc1 [Example 75]
inhibition at 10 µM: 31%
